Origin of values: patent US20170306031A1

Biological target: T1, human GFRAL expressed on cells (human, UniProt Q6UXV0 20-394)
T1 sequence: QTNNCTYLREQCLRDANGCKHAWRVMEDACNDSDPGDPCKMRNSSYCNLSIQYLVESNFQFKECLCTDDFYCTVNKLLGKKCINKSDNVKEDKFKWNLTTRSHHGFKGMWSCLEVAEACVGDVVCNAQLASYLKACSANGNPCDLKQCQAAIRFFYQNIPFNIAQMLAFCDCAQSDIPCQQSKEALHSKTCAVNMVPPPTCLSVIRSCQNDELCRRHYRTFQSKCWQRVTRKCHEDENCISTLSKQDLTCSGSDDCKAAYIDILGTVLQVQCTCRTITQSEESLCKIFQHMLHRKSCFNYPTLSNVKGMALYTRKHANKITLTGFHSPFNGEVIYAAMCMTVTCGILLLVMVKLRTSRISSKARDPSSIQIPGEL
Test: cell-based or functional assay
measurement type: IC50, ELK1-luciferase reporter (hGFRAL/hRET) (nM)
Could you give me the number in nM? Just the number is fine.

humanized anti-GFRAL antibody HC-375h/LC-375j (antibody, IgG1, V domains shown, humanized 5F12) VH: QVQLVQSGAEVKKPGASVKVSCKASGYTFTDYYINWVRQAPGQRLEWIARIYPGNGNTYHNEKFKGRATLTRDKSASTAYMELSSLRSEDTAVYYCAREGLYYDYDRYFDYWGQGTLVTVSS VL: DIVLTQSPLSLPVTLGQPASISCRASESVDTYGNSFMHWYQQRPGQSPRLLIYLASNLESGVPDRFSGSGSRTDFTLKISRVEAEDVGVYYCHQNNEDPPAFGGGTKVEIK: 7.29
humanized anti-GFRAL antibody HC-375d/LC-375i (antibody, IgG1, V domains shown, humanized 5F12) VH: QVQLVQSGAEVKKPGSSVKVSCKASGYTFTDYYINWVRQAPGQGLEWIGRIYPGNGNTYHNEKFKGRATLTADKSTSTAYMELSSLRSEDTAVYYCAREGLYYDYDRYFDYWGQGTLVTVSS VL: DVVLTQSPLSLPVTLGQPASISCRASESVDTYGNSFMHWFQQRPGQSPRLLIYLASNLESGVPDRFSGSGSGTDFTLKISRVEAEDVGVYYCHQNNEDPPAFGGGTKVEIK: 2.75
humanized anti-GFRAL antibody HC-375e/LC-375c (antibody, IgG1, V domains shown, humanized 5F12) VH: QVQLVQSGAEVKKPGSSVKVSCKASGYTFTDYYINWVRQAPGQGLEWMGRIYPGNGNTYHNEKFKGRATLTADESTSTAYMELSSLRSEDTAVYYCAREGLYYDYDRYFDYWGQGTLVTVSS VL: DIQMTQSPSSLSASVGDRVTITCRASESVDTYGNSFMHWYQQKPGKAPKLLIYLASNLESGVPSRFSGSGSGTDFTLTISSLQPEDFATYYCHQNNEDPPAFGGGTKVEIK: 2.2

-- ask Tell me the measured IC50, ELK1-luciferase reporter (hGFRAL/hRET) of humanized anti-GFRAL antibody HC-375e/LC-375g (antibody, IgG1, V domains shown, humanized 5F12) VH: QVQLVQSGAEVKKPGSSVKVSCKASGYTFTDYYINWVRQAPGQGLEWMGRIYPGNGNTYHNEKFKGRATLTADESTSTAYMELSSLRSEDTAVYYCAREGLYYDYDRYFDYWGQGTLVTVSS VL: DIVLTQSPDSLAVSLGERATINCRASESVDTYGNSFMHWYQQKPGQPPKLLIYLASNLESGVPDRFSGSGSRTDFTLTISSLQAEDVAVYYCHQNNEDPPAFGGGTKVEIK , please.
-- reply 2.27

-- ask Field entry: humanized anti-GFRAL antibody HC-375d/LC-375c (antibody, IgG1, V domains shown, humanized 5F12) VH: QVQLVQSGAEVKKPGSSVKVSCKASGYTFTDYYINWVRQAPGQGLEWIGRIYPGNGNTYHNEKFKGRATLTADKSTSTAYMELSSLRSEDTAVYYCAREGLYYDYDRYFDYWGQGTLVTVSS VL: DIQMTQSPSSLSASVGDRVTITCRASESVDTYGNSFMHWYQQKPGKAPKLLIYLASNLESGVPSRFSGSGSGTDFTLTISSLQPEDFATYYCHQNNEDPPAFGGGTKVEIK
-- reply 3.28
